B1: HDV Ribozyme (parent)
chain: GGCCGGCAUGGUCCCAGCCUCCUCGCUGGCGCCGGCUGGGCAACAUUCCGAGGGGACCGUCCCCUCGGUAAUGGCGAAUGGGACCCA

Variants of: B1
Test: self-cleavage, relative activity (ratio to wild type); higher = more cleavage; co-transcriptional
Class field: derived from self-cleavage; ranges low range: < 0.1; mid range: ≥ 0.1 and < 0.4; high range: ≥ 0.4

itemsequence="GGCCGGCAUGGUCCCAGCCUCCUCGCUGGCGCCGGCUGGGCAACAUUCCGAGGGGACCGUCCCCUCGGUAAUGGAGAAUGGGGCCCA [C75A A83G]" classname="low range"
itemsequence="GGCCGGCAUGGUCCCAGCCUCCUCGCUGGCGCCUGCUGGGCAACAUUCCGAGGGGACGGUCCCCUCGGUAAUGGCGAAUGGGACCCA [G34U C58G]" classname="low range"
itemsequence="GGCCGGCAUGGUCCCAGGCUCCUCGCUGGCGCCUGCUGGGCAACAUUCCGAGGGGACCGUCCCCUCGGUAAUGGCGAAUGGGACCCA [C18G G34U]" classname="low range"
itemsequence="GGUCGGCAUGGUCCCAGCCUCCUCGCUGGCGCCGGCUGGGCAACAUUCCGAGGGGACCGUCCCCUCGGUAAUGGCGAAUUGGACCCA [C3U G80U]" classname="mid range"
itemsequence="GGCCGGCAUGGUCCCAGCCUCCUCGCUGGCGCCGGCUGGGCAACAUUCCGAGGGGACCGUCCCCUCGGUAAUUGGGAAUGGGACCCA [G73U C75G]" classname="low range"
itemsequence="GGCCGGCAUGGUCCCAGCCUCCUCGCUGGCGCCGGCUGGGCAACAGUCCGAGGUGACCGUCCCCUCGGUAAUGGCGAAUGGGACCCA [U46G G54U]" classname="high range"

[in] Could you place GGCCGGCAUGGUCCCAGCCUCCUCGCUGGCGCCGGCUGGGCAACAUUCCGAGGGGACCGUCCCCUCGGGACUGGCGAAUGGGACCCA [U69G A71C] in its proper category? Many thanks.
[out] high range

[in] Another: GGCCGGCAUGGUCCCAGCCUCCUCGCUCGCGCCGGCUGGGCAACAUUCCGAGAGGACCGUCCCCUCGGUAAUGGCGAAUGGGACCCA [G28C G53A]
[out] low range

[in] Also need GGCCGGCAUGGUCCCAGCCUCCGCGCUGGCGCCGGCUGGGCAACAUUCCGAGGGAACCGUCCCCUCGGUAAUGGCGAAUGGGACCCA [U23G G55A] , thanks.
[out] high range

[in] Another variant: GGCCGGCAUGGUCCCAGCCUCCUCGCUGGCGCCGGCUGGGCAACAUUCCGAGGGGACCGUCGCCUCGGUACUGGCGAAUGGGACCCA [C62G A71C]
[out] high range

[in] Follow-up item: GGCCGGCAUGGUCCCGGCCUCCUCGCUGGCGCCGUCUGGGCAACAUUCCGAGGGGACCGUCCCCUCGGUAAUGGCGAAUGGGACCCA [A16G G35U]
[out] mid range
